Biological target: human DNA ligase IV (Homo sapiens)
Sequence (P49917 whole entry): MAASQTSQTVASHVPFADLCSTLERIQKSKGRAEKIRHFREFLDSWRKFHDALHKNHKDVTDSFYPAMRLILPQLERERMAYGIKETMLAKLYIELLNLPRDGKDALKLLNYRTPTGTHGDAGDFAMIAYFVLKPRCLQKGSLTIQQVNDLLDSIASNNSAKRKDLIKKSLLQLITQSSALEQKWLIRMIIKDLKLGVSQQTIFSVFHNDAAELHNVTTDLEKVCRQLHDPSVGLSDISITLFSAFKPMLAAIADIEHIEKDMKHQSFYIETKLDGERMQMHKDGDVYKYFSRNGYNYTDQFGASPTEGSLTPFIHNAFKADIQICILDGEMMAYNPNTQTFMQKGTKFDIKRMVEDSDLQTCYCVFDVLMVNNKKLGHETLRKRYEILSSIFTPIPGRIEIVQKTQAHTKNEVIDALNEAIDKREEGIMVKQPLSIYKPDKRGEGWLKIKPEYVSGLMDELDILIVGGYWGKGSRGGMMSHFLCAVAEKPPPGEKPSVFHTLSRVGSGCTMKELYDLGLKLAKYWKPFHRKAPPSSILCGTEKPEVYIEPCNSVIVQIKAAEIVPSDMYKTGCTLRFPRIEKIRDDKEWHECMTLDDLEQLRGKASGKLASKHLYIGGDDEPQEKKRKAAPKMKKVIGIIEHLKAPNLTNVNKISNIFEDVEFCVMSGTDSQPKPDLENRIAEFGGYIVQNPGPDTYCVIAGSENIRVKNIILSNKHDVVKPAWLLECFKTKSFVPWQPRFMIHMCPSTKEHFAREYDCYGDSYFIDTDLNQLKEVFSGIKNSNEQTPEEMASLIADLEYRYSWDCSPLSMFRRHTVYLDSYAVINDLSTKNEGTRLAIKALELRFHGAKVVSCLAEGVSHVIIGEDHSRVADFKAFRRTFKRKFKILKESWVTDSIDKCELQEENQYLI
Sequence (Q13426 whole entry partner): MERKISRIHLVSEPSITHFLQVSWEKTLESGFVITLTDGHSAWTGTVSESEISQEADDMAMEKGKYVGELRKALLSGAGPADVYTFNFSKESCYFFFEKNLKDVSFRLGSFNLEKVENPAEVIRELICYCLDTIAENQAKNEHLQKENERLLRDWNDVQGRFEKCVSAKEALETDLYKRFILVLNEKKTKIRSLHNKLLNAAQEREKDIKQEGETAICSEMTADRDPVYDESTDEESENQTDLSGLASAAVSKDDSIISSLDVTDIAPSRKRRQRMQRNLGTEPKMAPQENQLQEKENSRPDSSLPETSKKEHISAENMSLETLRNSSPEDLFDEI
Assay: High-throughput fluorescence-based DNA joining (ligation) assay
Format: biochemical
Settings: 100 μM
From the text: The method for screening compounds comprises testing the compound for the ability to inhibit human DNA ligases I, III and IV with a high throughput fluorescence-based ligation assay. In this assay, phosphodiester bond formation covalently links together two oligonucleotides, one of which is a fluorescent donor AF488 that is 11 nucleotides from the 3′ terminus and the other contains a fluorescence acceptor and quencher, BHQ1 that is 15 nucleotides from the 5′ terminus. […]
measured.metric: % of inhibition @ 100 μM (Helen's data) hLigIV

Use these answered entries as a reference point.
>  <compound>
CCc1ccc(NS(=O)(=O)c2ccc(Cl)s2)cc1

>  <tested.on>
human DNA ligase IV (Homo sapiens)

>  <observed.measurement>
NI (NI- no inhibition)

$$$$
>  <compound>
CS(=O)(=O)NNC(=O)C(=O)NNc1ccccc1

>  <tested.on>
human DNA ligase IV (Homo sapiens)

>  <observed.measurement>
NI (NI- no inhibition)

$$$$
>  <compound>
O=C(Nc1nc2ccccc2s1)c1ccc(Cl)c([N+](=O)[O-])c1

>  <tested.on>
human DNA ligase IV (Homo sapiens)

>  <observed.measurement>
37%

$$$$
>  <compound>
CC(C(=O)Nc1cccc(C(=O)O)c1)N(C)S(=O)(=O)c1ccccc1 (stereo not drawn)

>  <tested.on>
human DNA ligase IV (Homo sapiens)

>  <observed.measurement>
NI (NI- no inhibition)

$$$$
>  <compound>
O=C(O)Cc1ccccc1S(=O)(=O)c1ccc(Cl)cc1

>  <tested.on>
human DNA ligase IV (Homo sapiens)

>  <observed.measurement>
NI (NI- no inhibition)

$$$$

Next:
// query Using the record for `O=C(NN=Cc1ccc(S(=O)(=O)O)o1)c1ccccc1O` , report its % of inhibition @ 100 μM (Helen's data) hLigIV.
// result NI (NI- no inhibition)
